system: U2OS; assay: Multiplex assay against U2OS; type: toxicity, cell-based; conditions: human, 24 h, 10 µM, compound concentration 10 uM, replicate 1
QUANTITY: Total Cell Count

INSERT INTO results (compound, experimental_value) VALUES
  ('CN1CCC(C(=O)c2cccc(NC(=O)c3c(F)cc(F)cc3F)n2)CC1', 298),
  ('CCCCCCNC(=O)Nc1ccc(S(=O)(=O)Nc2ccc(CCNC[C@H](O)COc3ccc(O)cc3)cc2)cc1', 307),
  ('Cc1cc(-c2ccc3c(c2)CC[C@H]3N2CC3(CCN(C(=O)Cc4cn5cc(C)sc5n4)CC3)C2)ncn1', 295),
  ('COc1c(Nc2ccc(S(C)(=O)=O)nc2C)ncnc1OC1CCN(C(=O)OC(C)C)CC1', 305),
  ('O=C(O)CCC/C=C\CC1C(O)CC(O)C1/C=C/C(O)COc1cccc(Cl)c1 (stereo not given)', 306);

----------
system: HEK-293T; test: Multiplex assay against HEK293T; type: toxicity, cell-based; conditions: human, 12 h, 10 µM, compound concentration 10 uM, replicate 1
Consider the cut-off 60%. If the recorded Population Mitotic Cells (%) is strictly smaller, the label is label 1; if not, the label is label 0.

INSERT INTO measurements (compound, class_name) VALUES
  ('CCC(=O)OCC(=O)[C@@]1(OC(=O)CC)[C@@H](C)C[C@H]2[C@@H]3CCC4=CC(=O)C=C[C@]4(C)[C@@]3(Cl)[C@@H](O)C[C@@]21C [BECLOMETHASONE DIPROPIONATE]', 'label 1'),
  ('CC(C)(O)C(=O)N1CCN(c2ccc(C(F)(F)F)c(C3=C(c4c[nH]c5ccccc45)C(=O)NC3=O)c2)CC1', 'label 1'),
  ('COc1cc2nc(N3CCN(C(=O)COc4c(OC)cccc4C(C)C)CC3)nc(N)c2cc1OC.Cl.Cl', 'label 1'),
  ('CC(C)(C)c1ccc(CSc2cnn(C(C)(C)C)c(=O)c2Cl)cc1 [PYRIDABEN]', 'label 1'),
  ('Nc1nc(-c2ccco2)c2cnn(Cc3ccccc3F)c2n1', 'label 0'),
  ('CCn1c(-c2nc3cc(C(=O)N4CCCC(N)C4)ccc3n2C)cc2ccccc21.Cl (stereo unspecified)', 'label 1'),
  ('N[C@](CC1c2ccccc2Oc2ccccc21)(C(=O)O)[C@H]1C[C@@H]1C(=O)O', 'label 0'),
  ('CN1CCN(c2ccc(Nc3c4ccccc4nc4ccccc34)cc2)CC1.Cl.Cl.O', 'label 1'),
  ('CN(C)C(=O)Cn1cc(-c2ccc(-c3nnc4ccccn34)cc2)cn1', 'label 0'),
  ('CN1CCN2c3ccccc3Cc3ccccc3C2C1.Cl (stereo unspecified) [MIANSERIN HYDROCHLORIDE]', 'label 0'),
  ('O=C(O)CCC/C=C\CC1C(O)CC(O)C1/C=C/C(O)COc1cccc(Cl)c1 (stereo unspecified) [CLOPROSTENOL]', 'label 1'),
  ('COCCCN1CCC(NC(=O)c2cc(Cl)c(N)c3c2OCC3)CC1 [PRUCALOPRIDE]', 'label 0'),
  ('Cc1cc(=O)n(C)c2cc(N3C(=O)CC[C@H](NS(=O)(=O)CC(C)C)[C@H]3c3ccc(Cl)cc3)ccc12', 'label 1'),
  ('COC(c1ccccc1)(c1ccccc1)[C@H](Oc1nc(C)cc(C)n1)C(=O)O [AMBRISENTAN]', 'label 0'),
  ('O=C(NCCNCC(O)COc1ccc(O)cc1)N1CCOCC1.O=C(NCCNCC(O)COc1ccc(O)cc1)N1CCOCC1.O=C(O)/C=C/C(=O)O (stereo unspecified) [XAMOTEROL FUMARATE]', 'label 0');

The reported measurements were obtained from ChEMBL document CHEMBL5058577.
